Biological target: Galactokinase (Homo sapiens) (UniProt P51570)
Sequence (P51570 whole entry, looked up): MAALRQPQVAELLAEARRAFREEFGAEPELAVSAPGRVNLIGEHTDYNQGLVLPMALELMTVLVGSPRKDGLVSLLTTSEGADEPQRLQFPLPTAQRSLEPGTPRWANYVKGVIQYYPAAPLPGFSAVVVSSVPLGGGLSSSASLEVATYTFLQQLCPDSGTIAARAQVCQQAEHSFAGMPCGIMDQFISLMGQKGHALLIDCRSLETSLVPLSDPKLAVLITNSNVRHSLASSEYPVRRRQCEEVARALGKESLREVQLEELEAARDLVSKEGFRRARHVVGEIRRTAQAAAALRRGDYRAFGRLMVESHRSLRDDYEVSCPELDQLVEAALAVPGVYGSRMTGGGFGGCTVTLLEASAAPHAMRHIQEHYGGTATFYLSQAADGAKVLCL
Assay: Confirmation Assay for Inhibitors of Human Galactokinase (GALK): probe SAR
Conditions: purified GALK, Kinase-Glo ATP depletion luminescence; series mostly up to 115 µM
Records with an inconclusive call do not appear. Calls of active or inactive are those of the source. Calls follow the shape of the dose curve; as a rule, active = well fitted inhibition curve with a large enough effect; inconclusive = small, poorly fitted or top-dose-only effect; inactive = flat fitted curve, though single readings scatter.
Labels: TRUE (active), FALSE (inactive)

[[record]]
molecule = "O=C1CCCC2=C1C1(CCC1)N=C(Nc1nc3ccccc3o1)N2"
class_assignment = "TRUE"

[[record]]
molecule = "O=C1CCCC2=C1C1(CCCC1)N=C(Nc1nc3ccccc3n1Cc1ccccc1)N2"
class_assignment = "FALSE"

[[record]]
molecule = "O=C1CCCC2=C1C1(CCS(=O)(=O)C1)N=C(Nc1nc3ccccc3o1)N2 (centres undefined)"
class_assignment = "TRUE"

[[record]]
molecule = "O=C1CCCC2=C1C1(CCSCC1)N=C(Nc1nc3ccccc3o1)N2"
class_assignment = "TRUE"

[[record]]
molecule = "COc1cccc(C2N=C(Nc3nc4ccccc4o3)NC3=C2C(=O)CC(C)(C)C3)c1 (centres undefined)"
class_assignment = "TRUE"

[[record]]
molecule = "O=C1CCCC2=C1C(c1ccc(Cl)cc1)N=C(Nc1nc3ccccc3o1)N2 (centres undefined)"
class_assignment = "FALSE"

[[record]]
molecule = "O=C1CCCC2=C1[C@@]1(CCC(c3ccccc3)C1)N=C(Nc1nc3ccccc3o1)N2 (some centres undefined)"
class_assignment = "FALSE"

[[record]]
molecule = "CC1CCC2(C1)N=C(Nc1nc3ccccc3o1)NC1=C2C(=O)CCC1 (centres undefined)"
class_assignment = "TRUE"

[[record]]
molecule = "O=C1CCC2=C1C1(CCCC1)N=C(Nc1nc3ccccc3o1)N2"
class_assignment = "TRUE"

[[record]]
molecule = "O=C1CC(c2ccccc2)CC2=C1C1(CCCCC1)N=C(Nc1nc3ccccc3o1)N2 (centres undefined)"
class_assignment = "FALSE"

[[record]]
molecule = "CC1(C)CC(=O)C2=C(C1)NC(Nc1nc3ccccc3o1)=NC2c1ccccc1Cl (centres undefined)"
class_assignment = "TRUE"

[[record]]
molecule = "Cc1ccc2oc(NC3=NC4(CCCC4)C4=C(CCCC4=O)N3)nc2c1"
class_assignment = "TRUE"

[[record]]
molecule = "CC1(C)CC(=O)C2=C(C1)NC(Nc1nc3ccccc3o1)=NC2c1cccc(O)c1 (centres undefined)"
class_assignment = "TRUE"

[[record]]
molecule = "Cn1c(NC2=NC3(CCCC3)C3=C(CCCC3=O)N2)nc2ccccc21"
class_assignment = "FALSE"

